- System: rodent lifetime carcinogenesis bioassay, tumor incidence TD50
- method: carcinogenic potency in animals, long-term in vivo studies, CPDB compilation (AID 1745844)
- condition.info: rat; strain Fischer 344; females; by gavage; site: subcutaneous tissue; lesion: neurilemoma, malignant; dosed 103 weeks; study length 104 weeks
measurement.kind: TD50 (mg/kg/day)
Numbers only; they are read as mg/kg/day.

Task item: Return TD50 for the following compound: "c1ccc2occc2c1"
Reply: 98.8

----------
- System: rodent lifetime carcinogenesis bioassay, tumor incidence TD50
- method: carcinogenic potency in animals, long-term in vivo studies, CPDB compilation (AID 1745844)
- condition.info: mouse; strain CFLP; males; in feed; site: lung; lesion: adenoma; dosed 96 weeks; study length 96 weeks
Active and inactive are the calls of the source. No rule for the calls is given here.
measurement.kind: TD50

Task item: # lookup: rodent lifetime carcinogenesis bioassay, tumor incidence TD50 TD50, key = "S=C([S-])NCCNC(=S)[S-].[Zn+2]"
Reply: 932 mg/kg/day (inactive)

----------
- Test system: rodent lifetime carcinogenesis bioassay, tumor incidence TD50
- method: carcinogenic potency in animals, long-term in vivo studies, CPDB compilation (AID 1745844)
- condition.info: rat; strain Osborne-Mendel; both sexes; in feed; site: liver; lesion: several types; types named in the paper; dosed 104 weeks; study length 104 weeks
measurement.kind: TD50

Task item: Return TD50 for the following molecule: "CCOc1ccc(NC(N)=O)cc1"
Reply: 537 mg/kg/day

----------
- Tested on: rodent lifetime carcinogenesis bioassay, tumor incidence TD50
- method: carcinogenic potency in animals, long-term in vivo studies, CPDB compilation (AID 1745844)
- condition.info: rat; strain Fischer 344; males; inhaled; site: skin; lesion: basal-cell adenoma; dosed 104 weeks; study length 104 weeks
measurement.kind: TD50 (mg/kg/day)
Numbers only; they are read as mg/kg/day.

Task item: Return TD50 for the following compound: CC(O)COC(C)(C)C (stereo unspecified)
Reply: 2070

----------
- Test system: rodent lifetime carcinogenesis bioassay, tumor incidence TD50
- method: carcinogenic potency in animals, long-term in vivo studies, CPDB compilation (AID 1745844)
- condition.info: mouse; strain Swiss; females; in drinking water; site: lung; lesion: adenoma; dosed 78 weeks; study length 151 weeks
measurement.kind: TD50 (mg/kg/day)
Numbers only; they are read as mg/kg/day.

Task item: Return TD50 for the following compound: "C=COC(C)=O"
Reply: 11700

----------
- Test system: rodent lifetime carcinogenesis bioassay, tumor incidence TD50
- method: carcinogenic potency in animals, long-term in vivo studies, CPDB compilation (AID 1745844)
- condition.info: rat; strain Charles River CD (Sprague-Dawley); females; by gavage; site: liver; lesion: hepatocellular adenoma; dosed 52 weeks; study length 65 weeks
measurement.kind: TD50 (mg/kg/day)
Numbers only; they are read as mg/kg/day.

Task item: Return TD50 for the following compound: "CC/C(=C(\c1ccccc1)c1ccc(OCCN(C)C)cc1)c1ccccc1"
Reply: 4.35

----------
- Tested on: rodent lifetime carcinogenesis bioassay, tumor incidence TD50
- method: carcinogenic potency in animals, long-term in vivo studies, CPDB compilation (AID 1745844)
- condition.info: rat; strain Long-Evans BLU:(LE); both sexes; in drinking water; site: any site (literature study); lesion: one or several types; types not named; dosed 175 weeks; study length 175 weeks
The source made the active and inactive calls. How the calls were made is not given here.
measurement.kind: TD50

Task item: # lookup: rodent lifetime carcinogenesis bioassay, tumor incidence TD50 TD50, key = "CC(=O)[O-].CC(=O)[O-].[Cd+2]"
Reply: 1.81 mg/kg/day (inactive)

----------
- Tested on: rodent lifetime carcinogenesis bioassay, tumor incidence TD50
- method: carcinogenic potency in animals, long-term in vivo studies, CPDB compilation (AID 1745844)
- condition.info: rat; strain Charles River CD (Sprague-Dawley); females; in feed; site: mesovarium; lesion: leiomyoma; dosed 80 weeks; study length 80 weeks
measurement.kind: TD50

Task item: # lookup: rodent lifetime carcinogenesis bioassay, tumor incidence TD50 TD50, key = CC(C)(C)NCC(O)c1ccc(O)c(CO)c1 (stereo unspecified)
Reply: 36.3 mg/kg/day

----------
- Tested on: rodent lifetime carcinogenesis bioassay, tumor incidence TD50
- method: carcinogenic potency in animals, long-term in vivo studies, CPDB compilation (AID 1745844)
- condition.info: rat; strain Fischer 344; males; by gavage; site: any site (literature study); lesion: several types; types named in the paper; dosed 103 weeks; study length 105 weeks
Parameter: log10(TD50). Scope: all listed entries.
The common logarithm of TD50 in mg/kg/day is what is listed.

smiles.text | log10(TD50)
ClC(Cl)(Cl)C(Cl)(Cl)Cl | 1.45
C=C(C)CCl | 2.04
BrC(Br)Br | 2.71
CC1(C)COC1=O | 2.26

Then there is this compound:
Task item: Return log10(TD50) for the following compound: "Nc1ccc(Cl)cc1"
Reply: 1.32

----------
- Test system: rodent lifetime carcinogenesis bioassay, tumor incidence TD50
- method: carcinogenic potency in animals, long-term in vivo studies, CPDB compilation (AID 1745844)
- condition.info: hamster; strain Syrian Golden; males; in feed; site: forestomach; lesion: squamous-cell papilloma; dosed 48 weeks; study length 70 weeks
measurement.kind: TD50

smiles.text | result
CC(=O)Nc1nc(-c2ccc([N+](=O)[O-])o2)cs1 | 68.1 mg/kg/day
O=CNc1nc(-c2ccc([N+](=O)[O-])o2)cs1 | 83.8 mg/kg/day

Then there is this molecule:
Task item: Return TD50 for the following molecule: "O=CNNc1nc(-c2ccc([N+](=O)[O-])o2)cs1"
Reply: 25.1 mg/kg/day

----------
- Tested on: rodent lifetime carcinogenesis bioassay, tumor incidence TD50
- method: carcinogenic potency in animals, long-term in vivo studies, CPDB compilation (AID 1745844)
- condition.info: rat; strain Fischer 344; males; in feed; site: large intestine; lesion: carcinoma; dosed 27 weeks; study length 104 weeks
measurement.kind: TD50

Task item: Return TD50 for the following compound: "COc1ccccc1[N+](=O)[O-]"
Reply: 573 mg/kg/day

----------
- Tested on: rodent lifetime carcinogenesis bioassay, tumor incidence TD50
- method: carcinogenic potency in animals, long-term in vivo studies, CPDB compilation (AID 1745844)
- condition.info: rat; strain Charles River CD (Sprague-Dawley); males; in feed; site: liver; lesion: hepatocellular adenoma; dosed 97 weeks; study length 105 weeks
measurement.kind: TD50

Task item: Return TD50 for the following compound: "CCOCCc1c(-c2ccccc2)nc(N)n2ncnc12"
Reply: 2530 mg/kg/day

----------
- System: rodent lifetime carcinogenesis bioassay, tumor incidence TD50
- method: carcinogenic potency in animals, long-term in vivo studies, CPDB compilation (AID 1745844)
- condition.info: rat; strain Osborne-Mendel; males; in feed; site: any site (literature study); lesion: several types; types named in the paper; dosed 80 weeks; study length 110 weeks
Calls of active or inactive are those of the source. How the calls were made is not given here.
measurement.kind: TD50

Task item: Return TD50 for the following molecule: "ClC1=C(Cl)[C@]2(Cl)[C@@H]3[C@H]4C[C@H]([C@@H]5O[C@H]45)[C@@H]3[C@@]1(Cl)C2(Cl)Cl"
Reply: 0.776 mg/kg/day (inactive)

----------
- System: rodent lifetime carcinogenesis bioassay, tumor incidence TD50
- method: carcinogenic potency in animals, long-term in vivo studies, CPDB compilation (AID 1745844)
- condition.info: rat; strain Wistar; males; inhaled; site: lung; lesion: adenoma; dosed 78 weeks; study length 134 weeks
measurement.kind: TD50 (mg/kg/day)
Numbers only; they are read as mg/kg/day.

Task item: Return TD50 for the following compound: "[Cl][Cd][Cl]"
Reply: 0.563

----------
- Test system: rodent lifetime carcinogenesis bioassay, tumor incidence TD50
- method: carcinogenic potency in animals, long-term in vivo studies, CPDB compilation (AID 1745844)
- condition.info: rat; strain Sprague-Dawley; females; in feed; site: mammary gland; lesion: adenocarcinoma; dosed 45 weeks; study length 66 weeks
measurement.kind: TD50 (mg/kg/day)
Numbers only; they are read as mg/kg/day.

Task item: Return TD50 for the following compound: "Nc1nnc(-c2ccc([N+](=O)[O-])o2)s1"
Reply: 1.2

----------
- System: rodent lifetime carcinogenesis bioassay, tumor incidence TD50
- method: carcinogenic potency in animals, long-term in vivo studies, CPDB compilation (AID 1745844)
- condition.info: mouse; strain B6C3F1; males; inhaled; site: Zymbal's gland; lesion: carcinoma; dosed 26 weeks; study length 104 weeks
measurement.kind: TD50 (mg/kg/day)
Numbers only; they are read as mg/kg/day.

Task item: # lookup: rodent lifetime carcinogenesis bioassay, tumor incidence TD50 TD50, key = "C=CC=C"
Reply: 135

----------
- System: rodent lifetime carcinogenesis bioassay, tumor incidence TD50
- method: carcinogenic potency in animals, long-term in vivo studies, CPDB compilation (AID 1745844)
- condition.info: rat; strain Wistar; females; in feed; site: liver; lesion: several types; types named in the paper; dosed 70 weeks; study length 70 weeks
measurement.kind: TD50

Task item: Return TD50 for the following molecule: CC(C)(Oc1ccc(C2CCCc3ccccc32)cc1)C(=O)O (stereo unspecified)
Reply: 36.6 mg/kg/day
